Read-out: Interferon-gamma inducible Protein 10 (IP10), CXCL10 (gene 3627)
protocol details: BSK_hDFCGF_IP10: BioMAP Diversity Plus: hDFCGF Assay for Interferon-gamma inducible Protein 10 (IP10) Biomarker Activity (AID 2283053)
run parameters: primary human foreskin fibroblasts; actives raise or lower the signal
Calls of active or inactive are those of the source. How the source made its calls: active means hit-call score of the fitted dose curve at least 0.9, where 1 is the maximum; inactive means score below 0.9.
Outcome codes: TRUE = active, FALSE = inactive

• N#[N+]c1ccc2c(S(=O)(=O)[O-])cccc2c1O = FALSE
• CC(C)(c1cc(Br)c(OCCO)c(Br)c1)c1cc(Br)c(OCCO)c(Br)c1 = TRUE
• CCCCCCCCCCCCCCCC[N+](C)(C)CC = TRUE
• C#CC1(O)CC[C@H]2[C@@H]3CCC4=CCCC[C@@H]4[C@H]3CC[C@@]21C (stereo partly drawn) = TRUE
• CCOc1nc(F)cc2nc(S(=O)(=O)Nc3c(Cl)cccc3C(=O)OC)nn12 = FALSE
• CCCCC(CC)COC(=O)c1ccccc1O (stereo not drawn) = TRUE
• CCO[Si](C)(OCC)OCC = FALSE
• c1ccc2c(c1)ccc1cc3c(ccc4ccccc43)cc12 = FALSE
• c1ccc2c(c1)ccc1ncccc12 = FALSE
• C=CC(=O)OCC(Br)CBr (stereo not drawn) = TRUE
• O=c1c2ccccc2oc2ccccc12 = FALSE
• COCc1c(C(C)C)nc(C(C)C)c(/C=C/[C@@H](O)C[C@@H](O)CC(=O)O)c1-c1ccc(F)cc1 = FALSE
• C=C[Si](OC(C)=O)(OC(C)=O)OC(C)=O = FALSE
• O=Nc1ccc(O)cc1 = FALSE
• CCCCC/C=C\C/C=C\CCCCCCCC(=O)OC = TRUE
• CN1C(=O)N(C)C(O)C1O (stereo not drawn) = FALSE
• COc1ccc2nc(N)sc2c1 = FALSE
• C=CCOc1c(Br)cc(Br)cc1Br = TRUE

====

system tested: Cellular tumor antigen p53 (Homo sapiens) (UniProt P04637)
Sequence (P04637 whole entry, looked up): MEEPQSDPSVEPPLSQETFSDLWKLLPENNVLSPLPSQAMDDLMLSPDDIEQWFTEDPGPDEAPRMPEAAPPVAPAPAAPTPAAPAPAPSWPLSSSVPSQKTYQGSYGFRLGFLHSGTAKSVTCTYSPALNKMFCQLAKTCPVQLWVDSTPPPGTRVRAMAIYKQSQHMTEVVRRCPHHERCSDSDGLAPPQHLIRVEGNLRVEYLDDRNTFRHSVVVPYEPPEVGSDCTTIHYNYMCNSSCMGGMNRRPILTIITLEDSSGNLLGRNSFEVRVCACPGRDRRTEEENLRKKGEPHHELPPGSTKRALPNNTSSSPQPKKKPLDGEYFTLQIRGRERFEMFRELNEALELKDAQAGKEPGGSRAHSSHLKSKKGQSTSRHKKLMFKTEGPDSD
protocol details: TOX21_p53_BLA_p4_ratio: Tox21 HCT-116 p53 Agonism Beta-lactamase Assay, Ratio, Phase 4 (AID 2283601)
Inconclusive results are not listed. Calls of active or inactive are those of the source. How the source made its calls: active means hit-call score of the fitted dose curve at least 0.9, where 1 is the maximum; inconclusive means response in the unintended direction; inactive means score below 0.9.
assay metric: outcome

- Cc1ccccc1C: inactive
- C1CN(SSN2CCOCC2)CCO1: inactive
- Cc1cccc(C(=O)O)c1: inactive
- CCN(Cc1cccc(S(=O)(=O)O)c1)c1ccc(C(=C2C=CC(=[N+](CC)Cc3cccc(S(=O)(=O)[O-])c3)C=C2)c2ccccc2)cc1: inactive
- c1ccc(-c2ccccn2)nc1: inactive
- O=C(C=Cc1ccccc1)OCc1ccccc1: inactive
- CC(C)c1ccc(C#N)cc1: inactive

====

system tested: Peroxisome proliferator-activated receptor gamma (Homo sapiens) (UniProt P37231)
Sequence (P37231 whole entry, looked up): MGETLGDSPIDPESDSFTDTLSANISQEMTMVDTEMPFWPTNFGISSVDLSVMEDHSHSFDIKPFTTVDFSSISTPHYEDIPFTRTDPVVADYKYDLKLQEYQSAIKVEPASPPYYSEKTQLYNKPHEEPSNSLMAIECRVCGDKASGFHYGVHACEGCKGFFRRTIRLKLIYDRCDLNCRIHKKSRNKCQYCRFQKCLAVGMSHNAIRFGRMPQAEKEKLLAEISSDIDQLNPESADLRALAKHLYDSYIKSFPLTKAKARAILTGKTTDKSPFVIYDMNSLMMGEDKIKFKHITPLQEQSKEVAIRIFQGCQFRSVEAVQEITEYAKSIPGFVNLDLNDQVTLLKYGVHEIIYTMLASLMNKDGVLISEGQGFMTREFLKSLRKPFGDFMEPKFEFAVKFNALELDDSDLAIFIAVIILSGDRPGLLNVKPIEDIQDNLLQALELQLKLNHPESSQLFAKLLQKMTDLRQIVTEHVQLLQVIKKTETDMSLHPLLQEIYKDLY
protocol details: OT_PPARg_PPARgSRC1_0480: Odyssey Thera (OT) 8-hour Protein-Complementation Assay for Peroxisome Proliferator-activated Receptor Gamma / SRC-1 Co-activator (AID 2283387);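 further: nuclear to cytoplasmic split Venus YFP fluorescence ratio reporting PPARg SRC-1 interaction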
Results filed as inconclusive are left out. Activity calls are given as the source filed them. The calls were made as follows: active = hit-call score of the fitted dose curve at least 0.9, where 1 is the maximum; inconclusive = response in the unintended direction; inactive = score below 0.9.
assay metric: outcome

• CC(C)C1=CC2=CC[C@@H]3[C@](C)(CCC[C@@]3(C)C(=O)O)[C@H]2CC1 = inactive
• O=C1CCCC1 = inactive
• O=C(c1ccccc1)C1CCC1 = inactive
• O=S1(=O)OC(c2ccc(O)cc2)(c2ccc(O)cc2)c2ccccc21 = inactive
• CC(CC=O)CCCC(C)(C)O (centres undefined) = inactive
• Cc1cc(C)c(C)cc1C = inactive
• Cc1cc(C)c(C(=O)O)c(C)c1 = inactive
• CCN(CCC#N)c1ccc(N=Nc2c(Cl)cc([N+](=O)[O-])cc2Cl)cc1 = inactive
• CC(=O)OC(C)C = inactive
• CCCCC(CC)CCC(CC(C)C)OS(=O)(=O)O (centres undefined) = inactive
• O=C(C(Cl)Cl)N1CCOC12CCCCC2 = inactive
• O=C(C=Cc1ccccc1)OCc1ccccc1 = inactive
• OC1CCCC1 = inactive
• NC(=O)N=NC(N)=O = inactive
